Source listed as ChEMBL document CHEMBL3621047.

Ki data for Alpha-mannosidase (Canavalia ensiformis) follow.
Write the answer as a number in nM, unit excluded.

O=C1CC[C@@]2(CO)[C@@H](O)[C@H](O)[C@H](O)CN12	900

Using the record for O=C1CC[C@]2(CO)[C@@H](O)[C@H](O)[C@@H](O)CN12 , state its measured Ki. 35

---

# Procedure Text: Inhibition of aspergillus niger alpha-galactosidase using 10 mM p-nitrophenyl-alpha-D-galactopyranoside as substrate
Measured Endpoint: pKi
The value called pKi is obtained by taking minus log10 of the concentration in mol/L.

// known answers, use as guide
OC[C@]12CCCN1C[C@H](O)[C@@H](O)[C@@H]2O	7.05
OC[C@@]12CCCN1C[C@H](O)[C@@H](O)[C@@H]2O	6.27
OC[C@@]12CCCN1C[C@@H](O)[C@@H](O)[C@@H]2O	6.36
O=C1CC[C@@]2(CO)[C@@H](O)[C@H](O)[C@H](O)CN12	4.17
O=C1CC[C@@]2(CO)[C@@H](O)[C@H](O)[C@@H](O)CN12	4.85

Consider the additional compound presented here.
Identify measured pKi associated with O=C1CC[C@]2(CO)[C@@H](O)[C@H](O)[C@@H](O)CN12 6.48
